Reference for the values: ChEMBL document CHEMBL1201862

system: DLD-1; assay: NCI tumour cell line growth inhibition, 48 h
Activity calls are given as the source filed them. Cut-off read from the data, not from the text of the source: active = GI50 up to about 1.1 µM and inactive = higher.
measure: GI50

Reference set, count: 5
O=C(O)COc1ccc2c3c1C(=O)CCC3CO2 (stereo unspecified)    > 100 µM (inactive)
CSc1nc(CO)c(CO)n1C    > 100 µM (inactive)
Cn1c2c(c3ccccc31)CCN(CCCCN1CCc3c(n(C)c4ccccc34)C1=O)C2    > 100 µM (inactive)
Nc1cccc2c1C1=NNC(=O)CC1C2 (stereo unspecified)    > 100 µM (inactive)
Cc1cn(C2CC(O)C(CO)O2)c(=O)n2nnnc12 (stereo unspecified)    > 100 µM (inactive)

Using the record for CN1CCN2c3ccccc3CC(C#N)(C#N)C2C1 (stereo unspecified) , state its measured GI50.
> 100 µM (inactive)

State its GI50 for this molecule: `C[N+](C)(C)CC(=O)N/N=C/c1oc(-c2cccc([N+](=O)[O-])c2)c(-c2cccc([N+](=O)[O-])c2)c1[N+](=O)[O-]`
64.4 µM (inactive)

Assign GI50 to the following record: CSc1nc(NC2OC(CO)C(O)C(O)C2O)c(N)c(=O)[nH]1 (stereo unspecified)
> 100 µM (inactive)

Give a short answer stating reported GI50 for `O=C1c2cccc3cc4ccccc4c(c23)C(=O)N1CCNCCNCCNCCN1C(=O)c2cccc3cc4ccccc4c(c23)C1=O` .
< 0.014 µM (active)

Please give the documented GI50 of CN(C)CCC(=O)N1CCc2c([nH]c3ccccc23)C1c1cccnc1 (stereo unspecified)
> 100 µM (inactive)

Please list GI50 recorded for the molecule `Cc1nc(Nc2ccccc2)sc1C(=O)NNc1ccc([N+](=O)[O-])cc1[N+](=O)[O-]`
25.5 µM (inactive)

State, in one line, measured GI50 of `COC(=O)c1ccc(NCc2cc(O)ccc2O)cc1`
18.1 µM (inactive)

###

test system: SNB-19; experiment: NCI tumour cell line growth inhibition, 48 h
The source made the active and inactive calls. Cut-off read from the data, not from the text of the source: active = GI50 up to about 1.1 µM and inactive = higher.
Choose the fitting class; nothing outside true = active, false = inactive is accepted.

// known answers, use as guide
C/C(=N\c1ccc(N(C)C)cc1)c1ccccc1    false
C[N+](C)(C)CC(=O)N/N=C/c1oc(-c2cccc([N+](=O)[O-])c2)c(-c2cccc([N+](=O)[O-])c2)c1[N+](=O)[O-]    false
CCN(CC)Cc1cc(Nc2c3ccccc3nc3c4ccccc4n(C)c23)cc(CN(CC)CC)c1O    false
O=C([O-])C(O)C(O)C(=O)O.[K+] (stereo unspecified) [POTASSIUM HYDROGENTARTRATE]    false
N/N=C1\C(OC(=O)Nc2cccc(Cl)c2)=Nc2ccccc21    false
CC[P+](C)(C)CC    false

In the following, a different molecule is considered.
Recorded call for `CC(=O)N(C)CCc1c[nH]c2ccccc12` ?
false

###

Below, each entry is listed alongside its reported GI50.
system: SF-268; assay: NCI tumour cell line growth inhibition, 48 h
Activity calls are given as the source filed them. No stated cut-off is given here; in the data, active = GI50 up to about 1.1 µM and inactive = higher.

The cases that follow already have their GI50 on record.
NS(=O)(=O)c1ccc(NC(=O)c2cc([N+](=O)[O-])cc([N+](=O)[O-])c2)cc1    32.4 µM (inactive)
CC(=O)OC/C=C/Cn1ncc(=O)[nH]c1=O    > 100 µM (inactive)
O=c1c2cc(S(=O)(=O)O)ccc2nc(COc2ccc(Oc3ccc(Cl)cc3Cl)cc2)n1-c1ccc(Oc2ccc(Cl)cc2)cc1Cl    12.7 µM (inactive)
CN(C)c1ccc(/N=N/c2ccc3[nH]cnc3c2)cc1    20.6 µM (inactive)

Give the reported value of GI50 for this record: `CC(=O)N(C)CCc1c[nH]c2ccccc12`
> 100 µM (inactive)

For the compound `O=C1c2c(ccc3c2CCC3)CC12Cc1ccccc1C2` , give its reported GI50.
33.7 µM (inactive)
